B1: library; a variant is named by its letters at N, in order (parent)
chain: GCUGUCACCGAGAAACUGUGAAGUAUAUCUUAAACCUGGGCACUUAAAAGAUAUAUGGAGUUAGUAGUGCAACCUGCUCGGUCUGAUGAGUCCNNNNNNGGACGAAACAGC

variants of: B1; test: normalized RNA/DNA level with ligand (relative to sTRSVctl = 100) (log10 (% of sTRSVctl)); HEK293T; ligand: cyclic di-GMP (c-di-GMP-II aptamer); ligand concentration (+) RNA-Seq: 1 mM; higher = less ribozyme self-cleavage, higher mRNA level; details: reporter: mCherry (pCS4076), ligand present: yes
measurement name: normalized RNA/DNA level with ligand (log10)

variant description | observed result
ACAAGC | 1.7
GCUCAC | 1.83
ACCGAC | 1.77
ACGGCG | 1.86
UCAACU | 1.86
GCUUUG | 1.83
GUCUGG | 1.86
CUGGGU | 1.85
CCCCGU | 1.88
GACUAG | 1.79
